Taken from paper PMC9005681.

Recorded Mean %, one value per entry.
test system: cloned human or rodent CNS receptors, channels, and transporters (PDSP panel); test: PDSP GPCR panel primary binding assays at 10 μM; details: H3; primary assay, mean inhibition
Just the number please, in %, no unit attached.

Examples with answers:
{"columns": ["compound", "u", "measured"],
 "data": [
  ["CNc1nc(C)nc(N[C@H]2CCC[C@@H](C(=O)NCc3ccc(C#N)cc3C(F)(F)F)C2)n1 [UNC10302679A, GSK2256294A]", "%", 13.41],
  ["CC(=O)N1CCC(NC(=O)NC23CC4CC(CC(C4)C2)C3)CC1 [UNC10302683A, AR9281]", "%", 8.09],
  ["O=C(NC1CC1)C(=O)C(Cc1ccccc1)NC(=O)[C@H]1CCC(=O)N1Cc1ccccc1 (some centres unmarked) [UNC10302676A, ABT-957 (Alicapistat)]", "%", -14.21],
  ["O=c1oc2ccccc2cc1-c1cn2cc(Cc3ccc(F)cc3)sc2n1 [UNC10302680A, iMDK]", "%", 41.02]
]}

// below: Mean % requested for another compound
Query: Query Mean % for CCC(=O)N1CCC(NC(=O)Nc2ccc(OC(F)(F)F)cc2)CC1 [UNC10302681A, TPPU]
Response: 21.21
